Tested on: PEG-3
ASSAY_NOTES: Peg3 promoter luciferase inhibitors, potency, dose response, cell-based, HeLa, CREF/GAPDH counter-screen panel (AID 624167)
CONDITION_SET: HeLa PEG-Prom luciferase reporter, overnight, CREF/GAPDH counter-screens, run 1, dose range 1, individual replicate IC50 per panel
RECORDED_METRIC: pIC50
Please express pIC50 as -log10 of the molar concentration.

Incoming: Query the reported pIC50 for PEG-3; item: COc1ccccc1NC(=O)c1cc(-c2cc(OC)c(OC)c(OC)c2)nc2ccccc12
Outgoing: 4.56

Incoming: Cc1ccccc1NC(=O)C(=Cc1ccc(C(=O)O)cc1)C(=O)Nc1ccccc1C ?
Outgoing: 4.43

Incoming: Param item: OC[C@@H]1[C@@H](c2ccc(Cl)cc2)C(c2cccc(Cl)c2)=NN1c1ccccc1
Outgoing: 4.52

Incoming: Moving on to the next compound: Cc1cc(C(=O)COC(=O)c2ccccc2O)c(C)n1CC1CCCO1 (stereo not given)
Outgoing: 5.91

Incoming: // next record O=c1c2ccccc2cnn1-c1nc2ccccc2[nH]1
Outgoing: 6.16

Incoming: Now the compound COc1ccccc1C1c2ccc3ccccc3c2Oc2ncn(CCCO)c(=N)c21 (stereo not given)
Outgoing: 4.76

Incoming: Another compound: CCCCC(=O)NC(c1ccccc1Cl)c1ccc2cccnc2c1O (stereo not given)
Outgoing: 5.53

Incoming: Also CC(=O)N1CCCC(c2cc(C(=O)Nc3ccccc3)no2)C1 (stereo not given) ?
Outgoing: 5.31

Incoming: Ok, now CCCCCCCCNCCS(=O)(=O)NCc1ccc(OC)cc1
Outgoing: 4.75

Incoming: Would you mind doing Cc1ccc2sc(N(CCCN(C)C)C(=O)c3ccc(S(=O)(=O)N(C)Cc4ccccc4)cc3)nc2c1C as well?
Outgoing: 4.72

---

ASSAY_NOTES: Peg3 promoter luciferase inhibitors, potency, dose response, cell-based, HeLa, CREF/GAPDH counter-screen panel (AID 624167)
CONDITION_SET: CREF/GAPDH counter-screens; GAPDH; mean of runs
The source made the active and inactive calls.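 Rule for the calls: active = mean IC50 for reducing PEG3 promoter reporter signal at or below a set limit, with IC50 above the limit in both counter screens; inactive = the rest, including counter screen hits.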
Log the outcome using a class from true = active, false = inactive

Incoming: Answer briefly: the call reported for COc1ccc(NC(=O)c2cc(-c3ccccn3)nc3ccccc23)cc1S(=O)(=O)N(C)C in this assay.
Outgoing: false

Incoming: Further, for COc1cc(C(=O)N/N=C(\c2ccccc2)c2ccccn2)cc(OC)c1OC ?
Outgoing: false

Incoming: Next record, please: CC(=O)OC1CC[C@]2(C#N)[C@H]3CC[C@]4(C)[C@H](C5C=CC(=O)O5)CCC4(O)C3CCC2(O)C1 (stereo not given in full)
Outgoing: true

Incoming: Same read-out for O=[N+]([O-])c1nn(-c2ccc3c(c2)OCCO3)n(O)c1=Nc1ccc(Cl)cc1 ?
Outgoing: true

Incoming: Another molecule to look at: COc1cc(OC)c2cc(C(=O)N/N=C/c3ccccc3O)[nH]c2c1
Outgoing: false

Incoming: Also Cc1ccc(NC(=S)NC(=O)c2ccc(F)cc2)cc1S(=O)(=O)Nc1ccccc1Cl ?
Outgoing: false

Incoming: And for O=c1cnnc(N/N=C/c2ccccn2)[nH]1 ?
Outgoing: false

Incoming: Ok, now Oc1[nH]c2ccc(Br)cc2c1N=NC(=S)N1CCOCC1
Outgoing: true

Incoming: Proceed to CCCCC(=O)NC(c1ccccc1OC)c1ccc2cccnc2c1O (stereo not given)
Outgoing: false

Incoming: Now try Cc1cccc(OCC(=O)NCC(=O)N/N=C/c2cc(Br)cc(Br)c2O)c1 .
Outgoing: false

FYI, the data here is from PubChem BioAssay AID624167.
